experiment: logP determination through HPLC (EEC directive 79/831 Annex V. A8); type: physicochemical
experimental-endpoint: logP
Just the number, please, no unit attached.

Sure, the documented logP for CC(C)C(C)Nc1c(-c2ncncc2Cl)c(Cl)nc2c(C#N)cnn12 (centres unmarked) [Example 4] is 3.13

What the record says about CN(CCC#N)c1c(-c2cc(Cl)sc2Cl)c(Cl)nc2c(C#N)cnn12 [Example 19] : logP is 3.90

Sure, the documented logP for CC(Nc1c(-c2ncncc2F)c(Cl)nc2ccnn12)C(C)(C)C (centres unmarked) [Example 60] is 3.42

// recorded logP for CC(Nc1c(-c2cc(Cl)sc2Cl)c(Cl)nc2c(C#N)cnn12)C(F)(F)F (single isomer, unassigned) [Example 31] : 4.46

Lookup result for CC(Nc1c(-c2ncncc2Cl)c(Cl)nc2c(C#N)cnn12)C(C)(C)C (centres unmarked) [Example 3] ; measured logP: 3.54

Given item CC(C)C(C)Nc1c(-c2cc(Cl)sc2Cl)c(Cl)nc2c(C#N)cnn12 (centres unmarked) [Example 24] , the value recorded as its logP is 5.19

Measured logP, CC(Nc1c(-c2ncncc2F)c(Cl)nc2c(Cl)cnn12)C(C)(C)C (centres unmarked) [Example 59] : 4.11

Noted for CC(Nc1c(-c2ncncc2F)c(Cl)nc2c(C#N)cnn12)C(F)(F)F (centres unmarked) [Example 58] : its logP reads 2.65

---

assay: logP determination through HPLC (EEC directive 79/831 Annex V. A8); format: physicochemical
Entries whose logP is below 4 take T; entries at or above 4 take F.

Task: Below 4 on logP? Entry CC(Nc1c(-c2ncncc2F)c(Cl)nc2c(C#N)cnn12)C(C)(C)C (centres unmarked) [Example 56]
Output: T

Task: Check if logP falls below 4 for N#Cc1cnn2c(N3CCC(F)(F)CC3)c(-c3ccsc3)c(Cl)nc12 [Example 36] .
Output: T

Task: Hello, I'm reviewing records and need to know if logP of COCCN(C)c1c(-c2cc(Cl)sc2Cl)c(Cl)nc2c(C#N)cnn12 [Example 18] is below 4. Could you check?
Output: F

Task: Dear reviewer, please state whether CC(C)(C)CNc1c(-c2cc(Cl)sc2Cl)c(Cl)nc2c(C#N)cnn12 [Example 15] has logP strictly beneath 4.
Output: F

Task: Consider CC(Nc1c(-c2ncncc2Cl)c(Cl)nc2c(Cl)cnn12)C(C)(C)C (centres unmarked) [Example 5] . Does its logP lie strictly below 4?
Output: F

Task: Strictly below 4: is that where logP of CCCN(CC1CC1)c1c(-c2cc(Cl)sc2Cl)c(Cl)nc2c(C#N)cnn12 [Example 20] sits?
Output: F

---

For each entry below, report its logP value.
test: logP determination through HPLC (EEC directive 79/831 Annex V. A8); type: physicochemical
The reply should be a number, written without any unit.

The reported value for N#Cc1cnn2c(N3CCCCC3)c(-c3cc(Cl)sc3Cl)c(Cl)nc12 [Example 23] in terms of logP is 6.19

The molecule listed as CC(C)C(C)Nc1c(-c2ncncc2F)c(Cl)nc2c(C#N)cnn12 (stereo not drawn) [Example 57] has a reported logP of 2.92

// sample CC(C)CC(C)Nc1c(-c2cc(Cl)sc2Cl)c(Cl)nc2c(C#N)cnn12 (stereo not drawn) [Example 29] , its logP was 5.59

// logP value for CC1CCCN1c1c(-c2ncncc2Cl)c(Cl)nc2c(C=O)cnn12 (stereo not drawn) [Example 54] : 2.44

Looking up CC1CCN(c2c(-c3ncncc3F)c(Cl)nc3c(C#N)cnn23)CC1 [Example 63] , I see its logP listed as 3.20

Just so you know, measured logP for CC(Nc1c(-c2ncncc2Cl)c(Cl)nc2c(C=O)cnn12)C(C)(C)C (stereo not drawn) [Example 62] came out at 3.12

Short answer for CC(C)C(C)Nc1c(-c2ncncc2F)c(Cl)nc2ccnn12 (stereo not drawn) [Example 61] : logP was 2.98

Item: CC1CN(c2c(-c3cc(Cl)sc3Cl)c(Cl)nc3c(C#N)cnn23)CC(C)O1 (stereo not drawn) [Example 27] | logP: 4.72

logP in this record for CCC(C)Nc1c(-c2cc(Cl)sc2Cl)c(Cl)nc2c(C#N)cnn12 (stereo not drawn) [Example 10] : 4.82

Just for reference, patent US20070037828A1 is where these values come from.
